Some molecules, each annotated with its measured inhibition at 0.1 µM.
measuredTarget: 5-HT2B receptor (Homo sapiens, UniProt P41595)
Construct: host or cells: CHO-K1
Sequence (P41595 whole entry): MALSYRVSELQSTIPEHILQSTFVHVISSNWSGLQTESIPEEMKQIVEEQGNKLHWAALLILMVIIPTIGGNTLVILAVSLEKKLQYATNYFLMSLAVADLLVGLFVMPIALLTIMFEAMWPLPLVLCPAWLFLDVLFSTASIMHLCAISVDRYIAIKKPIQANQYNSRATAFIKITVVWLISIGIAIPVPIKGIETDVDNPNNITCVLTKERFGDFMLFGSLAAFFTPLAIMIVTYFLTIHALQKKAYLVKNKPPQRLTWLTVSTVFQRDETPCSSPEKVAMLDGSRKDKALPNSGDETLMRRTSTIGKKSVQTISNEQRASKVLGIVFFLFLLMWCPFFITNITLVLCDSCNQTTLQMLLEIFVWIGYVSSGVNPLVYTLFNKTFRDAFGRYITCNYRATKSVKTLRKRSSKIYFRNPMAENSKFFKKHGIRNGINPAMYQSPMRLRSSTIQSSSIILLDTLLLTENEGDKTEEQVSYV
assayRemarks: 5-HT2B receptor binding, 3H-LSD ligand displacement assay
testContext: 0.1 uM compound
Your answer should be a plain number; it is taken to be in %.

CCCCCCNC(=N)N1CC(C)C(c2cccc(Cl)c2OC)=N1 (centres unmarked): 97
COc1ccc(NC(=N)N2CC(C)C(c3ccccc3OCc3ccccc3)=N2)cc1 (centres unmarked): 77
COc1c(Cl)cccc1C1=NN(C(=N)NC2CCCCC2)CC1C (centres unmarked): 94
N=C(N)N1N=C(c2ccccc2Cl)C2CCCC21 (centres unmarked): 44
CNC(=N)N1CCC(c2ccccc2O)=N1: 41
CC1CN(C(=N)Nc2ccc(F)cc2)N=C1c1cccc(Cl)c1O (centres unmarked): 104

[in] Find the recorded inhibition at 0.1 µM belonging to CC1CN(C(=N)Nc2ccc(C(F)(F)F)cc2)N=C1c1cccc(Cl)c1O (centres unmarked) and report it.
[out] 99

[in] Let us now turn to CC1CN(C(=N)NC#N)N=C1c1cccc(Cl)c1O (centres unmarked)
[out] 74

[in] Let us now turn to CCOC(=O)NC(=N)N1CC(C)C(c2cccc(Cl)c2OC(=O)OCC)=N1 (centres unmarked)
[out] 54

[in] Let us now turn to CC1CN(C(=N)Nc2ccc(C(F)(F)F)cc2)N=C1c1ccccc1O (centres unmarked)
[out] 103

[in] Let us now turn to CC1CN(C(=N)N)N=C1c1ccc(F)cc1O (centres unmarked)
[out] 87

[in] Let us now turn to COc1ccc(C2=NN(C(=N)N)CC2C)c(OC)c1 (centres unmarked)
[out] 12

[in] Let us now turn to CC1CN(C(=N)Nc2ccc(Cl)cc2)N=C1c1cccc(Cl)c1O (centres unmarked)
[out] 101

[in] Let us now turn to N=C(NCc1ccccc1)N1CCC(c2ccccc2O)=N1
[out] 89

[in] Let us now turn to C[C@@H]1CN(C(=N)NCc2ccccc2)N=C1c1cccc(Cl)c1O (single isomer, unassigned)
[out] 103

[in] Let us now turn to CC1CN(C(=N)N)N=C1c1cc(Cl)ccc1O (centres unmarked)
[out] 72

[in] Let us now turn to COc1c(Cl)cccc1C1=NN(C(=N)Nc2ccccc2)CC1C (centres unmarked)
[out] 97

[in] Let us now turn to CC1CN(C(=N)NCC(F)(F)C(F)(F)C(F)(F)F)N=C1c1cccc(Cl)c1O (centres unmarked)
[out] 100

[in] Let us now turn to CC1CN(C(=N)N)N=C1c1c[nH]c2ccccc12 (centres unmarked)
[out] 84

[in] Let us now turn to N=C(N)N1CCC(c2cccc3ccccc23)=N1
[out] 81

* * *

measuredTarget: 5-HT2B receptor (Homo sapiens, UniProt P41595)
Construct: host or cells: CHO-K1
assayRemarks: 5-HT2B receptor binding, 3H-LSD ligand displacement assay
testContext: 0.1 uM compound
propertyLabel: inhibition at 0.1 µM (%)
Your answer should be a plain number; it is taken to be in %.

Use the examples below as a reference point.
COc1c(Cl)cccc1C1=NN(C(=N)NC#N)CC1C (centres unmarked): -2
COc1ccccc1C1=NN(C(=N)NCC(F)(F)C(F)(F)C(F)(F)F)CC1C (centres unmarked): 78
CCCCNC(=N)N1CC(C)C(c2cccc(Cl)c2OC)=N1 (centres unmarked): 98
N=C(NCc1ccccc1)N1CCC(c2ccccc2Cl)=N1: 59

Let us move to another entry and its inhibition at 0.1 µM.
[in] Find the recorded inhibition at 0.1 µM belonging to CCCCNC(=N)N1CC(C)C(c2cccc(Cl)c2O)=N1 (centres unmarked) and report it.
[out] 94

* * *

measuredTarget: 5-HT2B receptor (Homo sapiens)
Construct: host or cells: CHO-K1
assayRemarks: 5-HT2B receptor agonism, IP-1 accumulation in CHO-K1 cells without prior 5-HT stimulation
Format: cell-based
testContext: 10 uM, % of IP-1 accumulation induced by 5-HT (1 uM)
Some compounds, each annotated with its measured activation at 10 µM.
Your answer should be a plain number; it is taken to be in %.

[in] Find the recorded activation at 10 µM belonging to CC1CN(C(=N)N)N=C1c1ccccc1O.Cl (stereo not drawn) and report it.
[out] -2

[in] Let us now turn to COc1ccccc1C1=NN(C(=N)N)CC1
[out] -1

[in] Let us now turn to N=C(N)N1CCC(c2cccc3ccccc23)=N1
[out] -5

[in] Let us now turn to N=C(NCc1ccccc1)N1CCC(c2ccccc2Cl)=N1
[out] -13

[in] Let us now turn to Cl.N=C(N)N1CCC(c2ccccc2O)=N1
[out] -7

[in] Let us now turn to N=C(NCc1ccccc1)N1CCC(c2ccccc2O)=N1
[out] -2

* * *

Some compounds, each annotated with its measured inhibition at 0.001 µM.
measuredTarget: 5-HT2B receptor (Homo sapiens, UniProt P41595)
Construct: host or cells: CHO-K1
assayRemarks: 5-HT2B receptor binding, 3H-LSD ligand displacement assay
testContext: 0.001 uM compound
Experimental: 5-HT2B receptor binding (performed at Eurofins Panlabs Taiwan, Ltd.) to human receptor protein expressed in CHO-K1 cells was determined in a ligand displacement assay using ^3H-lysergic acid diethylamide (LSD) as radioligand and ketanserine as a standard reference compound. Data is presented as % displacement of radioligand at indicated compound concentrations, see Table 1 and Table 2.
Your answer should be a plain number; it is taken to be in %.

Use the examples below as a reference point.
CC1CN(C(=N)Nc2ccc(F)cc2)N=C1c1ccccc1O (stereo not shown) [Example 101]: 55
CNC(=N)N1CC(C)C(c2ccccc2O)=N1 (stereo not shown) [Example 40]: 1
CC1CN(C(=N)NCc2ccccc2Cl)N=C1c1ccccc1O (stereo not shown) [Example 56]: 52
CC1CN(C(=N)NCc2ccc(Cl)c(Cl)c2)N=C1c1ccccc1O (stereo not shown) [Example 58]: 2
C[C@@H]1CN(C(=N)N)N=C1c1cccc(Cl)c1O (single isomer, unassigned) [Example 73]: 49

Let us move to another entry and its inhibition at 0.001 µM.
[in] Find the recorded inhibition at 0.001 µM belonging to CC1CN(C(=N)NCC(F)(F)C(F)(F)C(F)(F)F)N=C1c1cccc(Cl)c1O (stereo not shown) [Example 107] and report it.
[out] 51

* * *

measuredTarget: 5-HT2B receptor (Homo sapiens, UniProt P41595)
Construct: host or cells: CHO-K1
assayRemarks: 5-HT2B receptor binding, 3H-LSD ligand displacement assay
testContext: 1 uM compound
Some compounds, each annotated with its measured inhibition at 1 µM.
Your answer should be a plain number; it is taken to be in %.

Use the examples below as a reference point.
N=C(N)N1CCC(c2coc3ccccc23)=N1: 88
COc1ccc(C2=NN(C(=N)N)CC2C)c(OC)c1 (stereo not shown): 41

[in] // fetch 5-HT2B receptor (Homo sapiens, UniProt P41595) inhibition at 1 µM for C[C@@H]1CN(C(=N)N)N=C1c1ccccc1O (single isomer, unassigned)
[out] 102

[in] Let us now turn to CC1CN(C(=N)N)N=C1c1ccnc2ccccc12 (stereo not shown)
[out] 43

* * *

Some compounds, each annotated with its measured inhibition at 10 µM.
measuredTarget: 5-HT2B receptor (Homo sapiens, UniProt P41595)
Construct: host or cells: CHO-K1
assayRemarks: 5-HT2B receptor binding, 3H-LSD ligand displacement assay
testContext: 10 uM compound
Method: 5-HT2B receptor binding (performed at Eurofins Panlabs Taiwan, Ltd.) to human receptor protein expressed in CHO-K1 cells was determined in a ligand displacement assay using ^3H-lysergic acid diethylamide (LSD) as radioligand and ketanserine as a standard reference compound. Data is presented as % displacement of radioligand at indicated compound concentrations, see Table 1 and Table 2.
Your answer should be a plain number; it is taken to be in %.

Use the examples below as a reference point.
N=C(N)N1CCC(c2ccccc2Br)=N1 [Example 4]: 101
CC1CN(C(=N)N)N=C1c1ccccc1O.Cl (stereo not shown) [Example 17]: 100
C[C@H]1CN(C(=N)N)N=C1c1ccccc1O (single isomer, unassigned) [Example 37]: 99
Cc1ccccc1C1=NN(C(=N)N)CC1 [Example 6]: 99

[in] Find the recorded inhibition at 10 µM belonging to COc1ccc(C2=NN(C(=N)N)CC2)cc1OC [Example 16, reference compound] and report it.
[out] 42

[in] Let us now turn to C[C@@H]1CN(C(=N)N)N=C1c1ccccc1O (single isomer, unassigned) [Example 38]
[out] 104

* * *

Some compounds, each annotated with its measured inhibition at 0.01 µM.
measuredTarget: 5-HT2B receptor (Homo sapiens, UniProt P41595)
Construct: host or cells: CHO-K1
assayRemarks: 5-HT2B receptor binding, 3H-LSD ligand displacement assay
testContext: 0.01 uM compound
Your answer should be a plain number; it is taken to be in %.

Use the examples below as a reference point.
COc1ccc(F)cc1C1=NN(C(=N)N)CC1C (centres unmarked) [Example 45]: 26
C[C@@H]1CN(C(=N)N)N=C1c1ccccc1O (single isomer, unassigned) [Example 38]: 76
CC1CN(C(=N)N)N=C1c1ccc(O)cc1O (centres unmarked) [Example 67]: 9
CCCCCCNC(=N)N1CC(C)C(c2cccc(Cl)c2OC)=N1 (centres unmarked) [Example 80]: 68
COc1ccc(CNC(=N)N2CC(C)C(c3ccccc3O)=N2)cc1 (centres unmarked) [Example 59]: 74
CC1CN(C(=N)Nc2ccc(Cl)cc2)N=C1c1ccccc1O (centres unmarked) [Example 103]: 90

[in] // fetch 5-HT2B receptor (Homo sapiens, UniProt P41595) inhibition at 0.01 µM for COc1c(F)cccc1C1=NN(C(=N)N)CC1C (centres unmarked) [Example 47]
[out] 15

[in] Let us now turn to CC1CN(C(=N)N[C@@H](C)c2ccccc2)N=C1c1ccccc1O (some centres unmarked) [Example 64]
[out] 43
